- Tested on: SN12C renal
- Experiment: NCI tumour cell line growth inhibition, 48 h; in the data active = GI50 below about 0.43 µM; inactive = the rest
Outcomes: active, inactive

- CNC[C@@H](NC(=O)c1ccc(-c2nc([C@H]3CC[C@H](O)[C@@H](F)C3)cnc2N)cc1F)c1cc(F)cc(Br)c1: inactive
- CCN1C2=C(SC(=S)C1=C1SC(C(=O)OC)=C(C(=O)OC)S1)SC(=Nc1ccc(OC)cc1)C2=O: inactive
- COC(=O)C12OCC34C(CC5C(C)=C(O)C(=O)CC5(C)C3C(O)C1O)OC(=O)C(OC(=O)C=C(C)C)C24 (stereo unspecified): active
- Cc1ccc(/C(=C/C=C(/C#N)C(N)=O)Sc2ncnn2C)cc1: inactive
- Cc1oc2nc[nH]c(=O)c2c1C(=O)/C=C/c1ccc(Br)cc1: inactive
- COC(=O)CCC1=C(C)C(C)=N/C1=C\c1[nH]c(-c2ccc[nH]2)cc1OC: inactive
- Oc1cc(Cn2cnc3c(Cl)nc(Cl)nc32)ccc1C12CC3CC(CC(C3)C1)C2: inactive
- O=C(Nc1ccc(-n2ccc3c(NC(=O)c4ccccc4)ncnc32)cc1)c1ccc(Cl)c(C(F)(F)F)c1: inactive
- CCOC(=O)C#Cc1c(C(=O)OCC)nnn1Cc1ccc(C(F)(F)F)cc1: inactive
- Nc1c(C(=O)c2cccc(-c3ccncc3)c2)cnn1-c1ccc(F)cc1: inactive
- CS(=O)(=O)OCCn1c2c(c3c(O)cccc31)C(=O)c1ccccc1-2: inactive

###

- System: U251 CNS
- Experiment: NCI tumour cell line growth inhibition, 48 h
Measurement Label: TGI (µM)

* Cc1cc(NS(=O)(=O)c2ccc(NC(=O)c3ccc(Cl)c4c(Nc5ccc(S(N)(=O)=O)cc5)c5ccccc5nc34)cc2)no1 | 27
* [O-][n+]1c2cc(CBr)c(CBr)cc2[n+]([O-])c2c(O)cccc21 | 7.07
* Cc1oc2nc[nH]c(=O)c2c1C(=O)/C=C/c1ccc(Br)cc1 | 3.17
* COc1ccc(C=C2C(=O)NC(=S)NC2=O)c2ccccc12 | 83.3
* COc1cccc(C=O)c1[O-].COc1cccc(C=O)c1[O-].[Cu+2] | 35.4
* CCCCNC(=O)NNC(=O)c1cc(/C=C/c2cccc([N+](=O)[O-])c2)ncn1 | 44.8
* COc1ccc(-c2cn(-c3cccc(C(=O)/C=C/c4cc(OC)c(OC)c(OC)c4)c3)c(=O)[nH]2)cc1 | 3.25
* COC(=O)[C@@H](C)C[C@H](Cc1ccccc1)NC(=O)c1nc([C@@H](C[C@H](C(C)C)N(C)C(=O)[C@@H](NC(=O)[C@H]2CCCCN2C)C(C)C)OC(C)=O)sc1C(C)C | 8.51

###

- Test system: TK-10 renal
- Experiment: NCI tumour cell line growth inhibition, 48 h; in the data active = GI50 below about 0.43 µM; inactive = the rest
Outcomes: 1 = active, -1 = inactive

- C1CCC(C(CC2CCCCN2)C2CCCCC2)CC1 (configuration not stated): -1
- CC(C)CNC(=O)c1ccc(NC(=O)N(CC(C)C)C(=O)c2ccc(N)c(OCCCN)c2)c(OCCCN=C(N)N)c1: -1
- COc1cc(/C=C\c2cc(/C=C\c3ccc(O)c(OC)c3)n(C(=O)COc3ccccc3)n2)ccc1O: -1
- O=C(c1cccs1)c1c(C(F)(F)F)n([O-])c2ccc(Cl)cc2[n+]1=O: 1
- O=c1c2[nH]ccc2nc2n1CCS2: -1
- C=C(C)[C@@H]1CC[C@]2(C)[C@H](CC[C@@H]3[C@@H]([C@@](C)(O)CCC=C(C)C)CC[C@]32C)[C@@]1(C)CCC(=O)N1CCN(C)CC1: -1
- CC(=O)O[C@H]1[C@@H]2OC(=O)C3(CC3)C2C[C@H]2O[C@]2(C)CC/C=C(\C)CCC[C@@H]1C (some centres not stated): -1
- C=C1C(=O)O[C@H]2[C@H]1CC/C(COC(=O)NCc1c[nH]c3ccc(Br)cc13)=C\CC[C@@]1(C)O[C@@H]21: -1
- Cc1cc(-c2ccc(C3C(C#N)=C(N)Oc4c3c(=O)oc3ccccc43)cc2)cnc1F (configuration not stated): -1
- CC(C)CC(=O)[O-].CC(C)CC(=O)[O-].N.N.N.N.[Co+3].[O-][Cl+3]([O-])([O-])O.[O-][Cl+3]([O-])([O-])[O-]: -1
- NC(=O)c1cc(Cl)ccc1NC(=O)COc1ccccc1: -1
- C=C1C(C(O)C[C@H](C)C2O[C@@]3(CCCCO3)CCC2C)O[C@@H]2CCC3(CCC(/C=C/[C@@H](C)C4CC(C)=CC5(O4)O[C@H](C[C@](C)(O)C(=O)O)CCC5O)O3)OC2[C@@H]1O (some centres not stated): 1

###

Listing of recorded TGI by entry.
- Tested on: A549 NSCLC
- Experiment: NCI tumour cell line growth inhibition, 48 h
Measurement Label: TGI

• c1ccc(-c2nc([P+](c3ccccc3)(c3ccccc3)c3ccccc3)c(N3CCOCC3)o2)cc1 = 48.6 µM
• Cc1ccccc1N1C(N)=C(C#N)C(C#N)(C#N)C1c1ccccc1 (centres undefined) = 62.7 µM
• CC(=O)OCC12C(OC(C)=O)C(=O)C3C(OC(C)=O)C14OC3(C)COC(=O)c1cccnc1C(C)C(C)C(=O)OC(C(OC(C)=O)C2OC(C)=O)C4(C)O (centres undefined) = > 100 µM
• Nc1nnnn1NC(=O)NCCCl = > 10 µM
• Nc1nc2c(ncn2C2C=CC(COS(N)(=O)=O)C2)c(=O)[nH]1 (centres undefined) = > 100 µM
• CCCCc1ccc(N2C(=O)c3cc([N+](=O)[O-])cnc3S2(=O)=O)cc1 = > 100 µM
• N=C(N)CCNC(=O)C1CCC(N)=N1 (centres undefined) = > 61.2 µM
• COC(=O)CCC(C)[C@H]1CCC2C3C(C[C@H](OC(C)=O)[C@@]21C)[C@@]1(C)CCC2(C[C@H]1C[C@H]3OC(C)=O)OOC1(CCC(C(C)(C)C)CC1)OO2 (some centres undefined) = > 100 µM
• Cc1ccc(C2=C(c3ccccc3)C(=O)C(c3ccccc3)=C2c2ccc(C)cc2)cc1 = > 100 µM

###

- System: LOX IMVI melanoma
- Experiment: NCI tumour cell line growth inhibition, 48 h
Listing of recorded TGI by entry.
Measurement Label: TGI (µM)

* C1CCC(C(CC2CCCCN2)C2CCCCC2)CC1 (stereo not drawn) | 3.21
* CC(C)=C[C@@H]1C[C@H](C)[C@H]2CC[C@H](C)c3c(O)c(OC4OCC(O)C(O)C4O)c(C)c1c32 (stereo partly drawn) | 28.2
* CCOC(=O)C#Cc1c(C(=O)OCC)nnn1Cc1ccc(C(F)(F)F)cc1 | 2.09
* C=C(C)C12OC3(c4ccccc4)OC1C1C4OC4(CO)C(O)C4(O)C(=O)C(C)=CC4C1(O3)C(C)C2OC(=O)/C=C/C=C/c1ccccc1 (stereo not drawn) | 0.411
* CC(=O)O[C@H]1[C@@H]2OC(=O)C3(CC3)C2C[C@H]2O[C@]2(C)CC/C=C(\C)CCC[C@@H]1C (stereo partly drawn) | 46.2
* c1ccc(-c2nc([P+](c3ccccc3)(c3ccccc3)c3ccccc3)c(N3CCOCC3)o2)cc1 | 3.9
* O=[N+]([O-])c1ccc2c3c1[C@H]1O[C@H]1c1cccc(c1-3)[C@@H]1O[C@H]21 | 1.28
* CC/C=C/c1cc2c(c3[nH]ccc13)[C@@H](C)CC2C (stereo partly drawn) (tested in a mixture with another compound) | 29.4
* CCCCCCCCCCCCCCCCCCNc1nc(=O)n(C2CC(O)C(COP(=O)(O)OCC(COP(=O)(O)OC3C(CO)OC(n4ccc(N)nc4=O)C3O)OCCCCCCCCCCCCCCCCCC)O2)cc1F (stereo not drawn) | 42.5
* CN1CCN(Cc2ccc(NC(=O)c3cncc(C#Cc4cnc5ccc(Cl)nn45)c3)cc2C(F)(F)F)CC1 | 1.6
* COC(=O)C1C(O)C(C)C(O)C(C)(O)/C=C/C=C(C)C(=O)Nc2c(C)c(OC(C)=O)c3c(c2O)C(=O)C(C)=C2OCOC(=C23)C(C)=CC(C)(O)C(O)C(C)C1OC(C)=O (stereo not drawn) | 41.2

###

- Test system: A498 renal
- Experiment: NCI tumour cell line growth inhibition, 48 h
Listing of recorded TGI by entry.
Measurement Label: TGI (µM)

- O=C(c1cccs1)c1c(C(F)(F)F)n([O-])c2ccc(Cl)cc2[n+]1=O: 18.5
- S=C1Cc2cc3ccccc3nc2-c2ccccc2N1: 18.6
- COc1c(O)ccc(C2=Cc3ccc(O)cc3OC2)c1OC: 80.8
- COc1ccc2c(c1)C(=O)c1c-2c(=O)n(CCCCCCC(=O)NO)c2ccccc12: 0.985

###

- System: SNB-75 CNS
- Experiment: NCI tumour cell line growth inhibition, 48 h
Measurement Label: TGI (µM)

* Cc1oc2nc[nH]c(=O)c2c1C(=O)/C=C/c1ccc(Br)cc1 | 9.62
* N#CC(C#N)N=Nc1ccc(-c2nc3ccccc3s2)cc1 | 54.8
* Oc1cc(Cn2cnc3c(Cl)nc(Cl)nc32)ccc1C12CC3CC(CC(C3)C1)C2 | 32.2
* CC(=O)O[C@H](C[C@@H](C)[C@H]1C(=O)[C@H](O)[C@@]2(C)C3CC[C@H]4C(C)(C)[C@@H](OC5OCC(O)C(O)C5O)CC[C@@]45C[C@@]35CC[C@]12C)[C@@H]1OC1(C)C (some centres undefined) | 26.1
* CNCCC/C=C1\c2cc3c(cc2-c2c1c1cc(OC)c(OC)cc1c(=O)n2C)OCO3 | 11.9
* C/C(=N\NC(=S)N1CCN(c2ccccn2)CC1)c1cccc(C)n1 | 12.5
* Cc1ccc2cc3cccc(C(=O)NCCN(C)C)c3nc2c1 | 4.75
* CCC(C)C1=NC(C(=O)N/C=C\c2c[nH]c3cc(Br)c(Br)cc23)(C(C)C)NC1=O (centres undefined) | 10.2
